Data origin: patent US9481654B2

System: IL-4 stimulated CD23 upregulation in human Ramos B cells (JAK-1/JAK-3, Stat-6)
Run Description: Assay for Ramos B-Cell Line Stimulated with IL-4 (CD23 upregulation, FACS)
Assay type: cell-based
Recorded Conditions: Table III Example 3
pIC50: −log10 of the molar value.
# cutoff 7 applies to pIC50; >= gives true, < gives false

CCS(=O)(=O)NCc1ccc(Nc2nc(Nc3ccc(S(N)(=O)=O)cc3)ncc2F)cc1Cl; false
Cc1ccc(Nc2ncc(C)c(Nc3ccc4c(c3)CCN(S(=O)(=O)C3CC3)C4)n2)cc1S(N)(=O)=O; true
CCCC(=O)N(Cc1cccc(Nc2nc(Nc3cccc(S(N)(=O)=O)c3)ncc2C)c1)S(=O)(=O)C1CC1; true
Cc1ccc(Nc2ncc(Cl)c(Nc3ccc(CNS(=O)(=O)C4CC4)cc3)n2)cc1S(N)(=O)=O; true
Cc1ccc(Nc2ncc(F)c(Nc3ccc(CNS(=O)(=O)C4CCCC4)cc3)n2)cc1S(N)(=O)=O; true
NS(=O)(=O)c1ccc(Nc2ncc(F)c(Nc3ccc(CNS(=O)(=O)c4cccnc4)cc3)n2)cc1; false
Cc1cnc(Nc2cccc(S(=O)(=O)N[C@H](C(=O)O)C(C)C)c2)nc1Nc1cccc(CNS(=O)(=O)C2CC2)c1 [Compound I-138]; false
Cc1cnc(Nc2ccc(S(N)(=O)=O)cc2)nc1Nc1ccc2c(c1)CCN(S(=O)(=O)C1CC1)C2; true
Cc1ccc(Nc2ncc(F)c(Nc3ccc(CNS(=O)(=O)c4cccs4)cc3)n2)cc1S(N)(=O)=O; true
NS(=O)(=O)c1ccc(Nc2ncc(Cl)c(Nc3ccc(CNS(=O)(=O)C4CC4)cc3)n2)cc1; true

In plain terms: is recorded pIC50 at least 7 for CCNS(=O)(=O)c1cccc(Nc2ncc(C)c(Nc3ccc(CNS(=O)(=O)C4CC4)cc3)n2)c1 ?
true

In plain terms: is recorded pIC50 at least 7 for Cc1cnc(Nc2ccc(S(=O)(=O)NCc3ccncc3)cc2)nc1Nc1ccc(CNS(=O)(=O)C2CC2)cc1 ?
false

In plain terms: is recorded pIC50 at least 7 for Cc1cnc(Nc2cc(S(N)(=O)=O)cc(S(N)(=O)=O)c2)nc1Nc1ccc(CNS(=O)(=O)C2CC2)cc1 ?
false

In plain terms: is recorded pIC50 at least 7 for Cc1ccc(Nc2ncc(C)c(Nc3ccc(CNS(=O)(=O)C4CC4)cc3)n2)cc1S(=O)(=O)NCC1CC1 ?
true

In plain terms: is recorded pIC50 at least 7 for Cc1cnc(Nc2cccc(S(=O)(=O)NC(C)C)c2)nc1Nc1ccc(CNS(=O)(=O)C2CC2)cc1 ?
true

In plain terms: is recorded pIC50 at least 7 for CCC(=O)NS(=O)(=O)c1cccc(Nc2ncc(C)c(Nc3cccc(CN(C(=O)CC)S(=O)(=O)C4CC4)c3)n2)c1 [Compound I-93] ?
false

In plain terms: is recorded pIC50 at least 7 for Cc1cnc(Nc2ccc(S(=O)(=O)NCc3ccccc3)cc2)nc1Nc1cccc(CNS(=O)(=O)C2CC2)c1 ?
false
